Can you tell me Growth Rate for the items I'm about to list?
Tested on: HEK-293T
Assay: Incucyte cell viability with HEK293T; note: unitless GR value; below 1 slowed growth and below 0 cell loss
Assay type: toxicity, cell-based
Settings: human, 0 h, 10 µM, compound concentration 10 uM, replicate number 1, timepoint 0 hours
Where a SMILES comes first, the peptide text is derived from it. [ ]: non-standard residue; d: D form. The star is where a group is joined. dPhe(4-NHCONH2) = NC(=O)Nc1ccc(C[C@@H](N)C(=O)O)cc1; Dihydroorotyl(S) = O=C1C[C@@H](C(=O)*)NC(=O)N1; dPhe(4-Cl) = N[C@H](Cc1ccc(Cl)cc1)C(=O)O; Phe(4-NH2) = Nc1ccc(C[C@H](N)C(=O)O)cc1; d2Nal = N[C@H](Cc1ccc2ccccc2c1)C(=O)O; Lys(iPr) = CC(C)NCCCC[C@H](N)C(=O)O; d3Pal = N[C@H](Cc1cccnc1)C(=O)O
Give bare numbers.

COc1cc(NC(=O)CCN2CCC(OC(=O)Nc3ccccc3-c3ccccc3)CC2)c(Cl)cc1CNC[C@H](O)c1ccc(O)c2[nH]c(=O)ccc12 [BATEFENTEROL]
-0.23
N[C@](CC1c2ccccc2Oc2ccccc21)(C(=O)O)[C@H]1C[C@@H]1C(=O)O
0.78
CCOc1ccc(Cc2nc3cc(C(=O)N(CC)CC)ccc3n2CC2CCCCC2)cc1
0.75

Record Growth Rate per entry; entries follow.
1. O=C1NC(Nc2ccccc2)=N/C1=C\c1ccc2c(c1)OCO2
2. CCC(=O)OCC(=O)[C@@]1(OC(=O)CC)[C@@H](C)C[C@H]2[C@@H]3CCC4=CC(=O)C=C[C@]4(C)[C@@]3(Cl)[C@@H](O)C[C@@]21C [BECLOMETHASONE DIPROPIONATE]
3. CC1=C(C)C(=O)C(C(C)(C)CC(=O)N(CCCCSC[C@H]2O[C@@H](n3cnc4c(N)ncnc43)[C@@H]3OC(C)(C)O[C@@H]32)Cc2cccc(-c3ccc(Cl)cc3)c2)=C(C)C1=O
4. Cc1ccccc1N1CCN(S(=O)(=O)C[C@]23CC[C@H](C[C@@H]2NC(=O)[C@@H](N)CCS(C)(=O)=O)C3(C)C)CC1.Cl
5. COC[C@@H](c1ccc(C(F)(F)F)cc1)N1CCN(C2(C)CCN(C(=O)c3c(C)ncnc3C)CC2)C[C@@H]1C.O=C(O)/C=C\C(=O)O [VICRIVIROC MALEATE]
6. C[C@H](CCC(=O)O)[C@H]1CC[C@H]2[C@@H]3CC[C@@H]4C[C@H](O)CC[C@]4(C)[C@H]3CC[C@]12C [LITHOCHOLIC ACID]
7. COc1cc(OC2CCN(C(C)=O)CC2)ccc1C(=O)N1CCC(N2C(=O)OCc3ccccc32)CC1

0.84
0.14
0.72
0.81
0.38
0.8
0.92

Batch request: Growth Rate per item, same order as input.
1. Cc1sc2c(c1C)C(c1ccc(Cl)cc1)=N[C@H](CC(=O)OC(C)(C)C)c1nnc(C)n1-2
2. CSCC[C@H](NC=O)C(=O)N[C@@H](CC(C)C)C(=O)N[C@@H](Cc1ccccc1)C(=O)O
3. Cl.NCCc1ccc(O)c(O)c1 [DOPAMINE HYDROCHLORIDE]

1: 0.38; 2: 0.95; 3: 0.96

Field: Growth Rate. Fill in for each record below.
1. CN(C)c1ccnc2sc3c(=O)n(N4CCCCCC4)cnc3c12
2. C=CCNc1ncnc2ccc(Br)cc12

[0.91, 0.98]

For each of the items listed, what is its Growth Rate?
1. Cc1nc(C#Cc2cccnc2)cs1.Cl
2. O=c1ccn([C@@H]2O[C@H](COP(=O)([O-])OP(=O)([O-])OP(=O)([O-])O)[C@@H](O)[C@H]2O)c(=O)[nH]1.[Na+].[Na+].[Na+]
3. CN[C@@H]1CCc2[nH]c3ccc(C(N)=O)cc3c2C1.O.O=C(O)CCC(=O)O [FROVATRIPTAN SUCCINATE]
4. Cc1cnc(-c2cc(N3CCN(C(=O)CCS(C)(=O)=O)CC3)ncc2Cl)c(C)c1

[0.27, 0.09, -0.07, 0.65]

Batch: Growth Rate for all items listed.
1. CN(c1ncccc1CNc1ccnc(-c2nc3c(F)c(Cl)ccc3[nH]2)n1)S(C)(=O)=O
2. Cl.Cl.NCCc1c[nH]cn1 [HISTAMINE DIHYDROCHLORIDE]
3. C[C@]1(O)CC[C@H]2[C@@H]3CCC4=CC(=O)CCC4=C3C=C[C@@]21C [METRIBOLONE]

[-0.02, 0.54, 0.16]

Give one value of Growth Rate per listed compound.
1. CCCCCCNC(=O)Nc1ccc(S(=O)(=O)Nc2ccc(CCNC[C@H](O)COc3ccc(O)cc3)cc2)cc1 [L-755507]
2. COc1cccc2c1c(NS(=O)(=O)c1ccc(Cl)s1)nn2Cc1cccc(CNC(=O)C(C)(C)O)c1
3. COc1ccc2c(c1)C(C(=O)N(Cc1ccc(N(C)C)cc1)c1ccc(C(C)C)cc1)CCC2.Cl (stereo not given)
4. CC(=O)N[C@H](Cc1ccc2ccccc2c1)C(=O)N[C@H](Cc1ccc(Cl)cc1)C(=O)N[C@H](Cc1cccnc1)C(=O)N[C@@H](CO)C(=O)N[C@@H](Cc1ccc(NC(=O)[C@@H]2CC(=O)NC(=O)N2)cc1)C(=O)N[C@H](Cc1ccc(NC(N)=O)cc1)C(=O)N[C@@H](CC(C)C)C(=O)N[C@@H](CCCCNC(C)C)C(=O)N1CCC[C@H]1C(=O)N[C@H](C)C(N)=O [DEGARELIX] (Ac-[d2Nal][dPhe(4-Cl)][d3Pal]S[Phe(4-NH2)](Dihydroorotyl(S))[dPhe(4-NHCONH2)]L[Lys(iPr)]P[dA]-NH2)
5. COc1cc(OC)cc(C(=O)NNC(=O)Nc2cccc3ccccc23)c1

0.4
0.52
0.39
-0.99
0.01

List the reported Growth Rate of each compound below.
1. C(#Cc1cccc(CN2CCOCC2)c1)CCN1CCCCC1
2. Nc1ncnc2c1ncn2[C@@H]1O[C@H](CO)[C@@H](O)[C@H]1O [ADENOSINE]
3. CCCN[C@H]1CCc2nc(N)sc2C1.Cl.Cl

1: 0.61; 2: -0.6; 3: 0.73
